System: Streptococcus
Assay: Group A Streptococcus viability loss, dose response, counter-screen for streptokinase expression inhibitor project, luminescence, BacTiterGlo (AID 1915);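 also: potency for reduction of bacterial viability or growth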
Format: functional, organism-based
Active and inactive are the calls of the source.
Answer each item with its documented EC50.

IN: // EC50 lookup, key: CC(C)(C)c1ccc(C(=O)NNC(=S)NC(=O)c2cccnc2)cc1
OUT: 2.42 µM (active)

IN: // EC50 lookup, key: O=S(=O)(Nc1cccc2ncccc12)c1cccs1
OUT: 7.13 µM (active)

IN: // EC50 lookup, key: COc1cc(-c2c(C#N)c(N)nc3c2c(C)nn3-c2ccc(C)c(C)c2)cc(OC)c1OC
OUT: 36.4 µM (active)

IN: // EC50 lookup, key: CCC(C)Nc1nc(N)c([N+](=O)[O-])c(Nc2cc(OC)ccc2OC)n1 (stereo not drawn)
OUT: 11.9 µM (active)

IN: // EC50 lookup, key: CCCCCCCn1c(NC(=O)CC)nc2ccccc21
OUT: 10.1 µM (active)

IN: // EC50 lookup, key: Cc1ccc(NNC(=O)C2CCC2)cc1C
OUT: > 150 µM (not active)

IN: // EC50 lookup, key: Cc1cc(C(=O)NCC(=O)OC(C(=O)Nc2cc(C(F)(F)F)ccc2Cl)c2ccccc2)ccc1[N+](=O)[O-] (stereo not drawn)
OUT: > 150 µM (not active)

IN: // EC50 lookup, key: COc1ccc(-c2csc(NC(=S)NC(=O)c3cccs3)n2)cc1OC
OUT: 74.3 µM (active)

* * *

Target: Cytochrome P450 2C19 (Homo sapiens)
Sequence (P33261 whole entry): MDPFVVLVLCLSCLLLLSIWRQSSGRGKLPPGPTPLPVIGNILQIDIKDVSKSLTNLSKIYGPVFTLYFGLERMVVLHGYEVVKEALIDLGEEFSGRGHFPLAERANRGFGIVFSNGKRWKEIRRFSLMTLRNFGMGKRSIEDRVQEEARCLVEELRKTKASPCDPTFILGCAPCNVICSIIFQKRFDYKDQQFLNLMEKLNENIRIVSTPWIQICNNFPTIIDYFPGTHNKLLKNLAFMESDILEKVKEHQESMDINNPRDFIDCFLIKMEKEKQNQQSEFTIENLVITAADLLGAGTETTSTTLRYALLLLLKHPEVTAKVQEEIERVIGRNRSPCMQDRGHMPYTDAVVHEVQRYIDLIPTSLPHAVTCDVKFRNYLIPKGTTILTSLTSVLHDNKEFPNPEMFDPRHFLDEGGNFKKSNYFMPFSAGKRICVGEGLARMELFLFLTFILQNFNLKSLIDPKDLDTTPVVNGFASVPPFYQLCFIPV
Assay: Cytochrome panel assay with activity outcomes. Panel member name: p450-cyp2c19 Compounds with AC50 equal or less than 10 uM are considered active
Format: functional
Conditions: read-out: AC50
VALUE KIND: AC50

IN: // AC50 lookup, key: Cc1cc(C(=O)NCc2ccccc2)no1
OUT: 28.2 µM (inconclusive)

IN: // AC50 lookup, key: Cc1cccc(C(=O)ON=C(N)c2cccc([N+](=O)[O-])c2)c1
OUT: 7.08 µM (inconclusive)

IN: // AC50 lookup, key: Cc1ccc(N2C(=O)/C(=C/N3CCN(C(=O)c4ccco4)CC3)C(=O)NC2=S)cc1C
OUT: 39.8 µM (inconclusive)

IN: // AC50 lookup, key: Cc1noc(COc2ccc(OCc3nc(C)no3)cc2)n1
OUT: 17.8 µM (inconclusive)

IN: // AC50 lookup, key: COc1ccc(S(=O)(=O)NNC(=O)C2Cc3c(ccc4ccccc34)O2)cc1 (stereo unspecified)
OUT: 5.62 µM (inconclusive)

IN: // AC50 lookup, key: CC1CCC(C(=O)NC(C(=O)N2CCC(N3CCCCC3)CC2)C(C)C)CC1 (stereo unspecified)
OUT: 8.91 µM (inconclusive)

IN: // AC50 lookup, key: CC(C)(C)c1ccc(COC(=O)CNC(=O)CNC(=O)Cc2ccccc2)cc1
OUT: 31.6 µM (inconclusive)

IN: // AC50 lookup, key: CCN(CC)c1ccc(/C=N/Nc2nc(C)cc(O)n2)cc1
OUT: 22.4 µM (inconclusive)

IN: // AC50 lookup, key: COCCCN1CCN(c2nnc3n2-c2sc(Br)cc2C(c2ccccc2Cl)=NC3)CC1.CS(=O)(=O)O
OUT: 7.08 µM (inconclusive)

IN: // AC50 lookup, key: COc1c(O)ccc2c1CN1CCc3cc4c(cc3[C@@H]1C2)OCO4
OUT: 3.98 µM (inconclusive)

IN: // AC50 lookup, key: CC(C)(C)C(=O)Nc1nnc(SCC(=O)NCc2cccs2)s1
OUT: 3.16 µM (inconclusive)
